Attribution: patent US12161650B2

# Assay Protocol: Phase 1 clinical trial, Part II, muscle biopsy: concentration in quadriceps muscle
# Format: in vivo, human (healthy male volunteers)
# Condition: male, human, quadriceps muscle / plasma, oral; 120 mg once daily, muscle Day 13 / plasma Day 14 at 3 hours post dose, geom. mean (geom. % CV); read-out: Kpu (unbound muscle concentration divided by plasma concentration)
Property Measured: Kp
Numbers only.

[in] Report measured Kp; entry is `COc1ccc2c(c1)CN(Cc1ccc(C(=O)O)cc1)CCS2.O=C(O)/C=C/C(=O)O`
[out] 0.0081

----------
# Assay Protocol: Phase 1 clinical trial, Part II multiple ascending doses over 14 days, plasma pharmacokinetics
# Assay type: in vivo, human (healthy male volunteers)
# Condition: male, human, plasma, oral; 120 mg once daily, Day 14, geom. mean
# Protocol: A Phase 1, randomized, double-blind, placebo-controlled clinical trial was performed to assess the safety and pharmacokinetics (PK) of Compound I after single, escalating, and repeated oral doses in health male volunteers. […] The area under the plasma concentration-time curve was calculated using a combined linear and logarithmic trapezoidal rule. […] Plasma and muscle samples were analyzed by LC-MS/MS method.
Property Measured: AUC
Give the figure together with its unit, number first.

[in] Let me know recorded AUC for COc1ccc2c(c1)CN(Cc1ccc(C(=O)O)cc1)CCS2.O=C(O)/C=C/C(=O)O [Compound I] , thanks.
[out] 221 µg·h/mL

----------
# Assay Protocol: Phase 1 clinical trial, Part II multiple ascending doses over 14 days, plasma pharmacokinetics
# Assay type: in vivo, human (healthy male volunteers)
# Condition: male, human, plasma, po, after 14-days of repeated once daily oral administrations, across cohorts; read-out: median Tmax
Property Measured: Tmax

[in] Return Tmax for the following compound: `COc1ccc2c(c1)CN(Cc1ccc(C(=O)O)cc1)CCS2.O=C(O)/C=C/C(=O)O`
[out] 3 to 4 h

----------
# Assay Protocol: Phase 1 clinical trial, Part II multiple ascending doses over 14 days, plasma pharmacokinetics
# Assay type: in vivo, human (healthy male volunteers)
# Condition: male, human, plasma, oral, 60 mg, 60 mg once daily, Day 1, median; read-out: tmax
Property Measured: Tmax (h)
Give bare numbers, in h.

[in] Using the record for `COc1ccc2c(c1)CN(Cc1ccc(C(=O)O)cc1)CCS2.O=C(O)/C=C/C(=O)O` , state its measured Tmax.
[out] 3

----------
# Assay Protocol: Phase 1 clinical trial, Part II multiple ascending doses over 14 days, plasma pharmacokinetics
# Assay type: in vivo, human (healthy male volunteers)
# Condition: male, human, plasma, oral; 240 mg once daily, Day 14, geom. mean
Property Measured: AUC (µg·h/mL)
Numbers only, in µg·h/mL.

[in] Specify AUC for `COc1ccc2c(c1)CN(Cc1ccc(C(=O)O)cc1)CCS2.O=C(O)/C=C/C(=O)O` and stop.
[out] 465

----------
# Assay Protocol: Phase 1b study in RYR1-Related Myopathy patients, plasma pharmacokinetics
# Type: in vivo, human (RYR1-Related Myopathy patients)
# Condition: human, plasma, po, 120 mg, single oral 120 mg, Day 1; read-out: TMax, all participants
Property Measured: Tmax

[in] Using the record for COc1ccc2c(c1)CN(Cc1ccc(C(=O)O)cc1)CCS2.O=C(O)/C=C/C(=O)O [Compound I] , state its measured Tmax.
[out] 3 h

----------
# Assay Protocol: Phase 1 clinical trial, Part II multiple ascending doses over 14 days, plasma pharmacokinetics
# Assay type: in vivo, human (healthy male volunteers)
# Condition: male, human, plasma, oral; based on the results of the single and repeat dose studies; read-out: Mean apparent terminal half-life (converted)
Property Measured: half-life

[in] Indicate its recorded half-life; the molecule in question is `COc1ccc2c(c1)CN(Cc1ccc(C(=O)O)cc1)CCS2.O=C(O)/C=C/C(=O)O`
[out] ~20 h
